# test.system: V1 receptor (Rattus norvegicus)
# test.name: biochemical
# Type: binding
property.name: IC50 (nM)

molecule: COC1(CNCCCCCCOc2ccc(C(=O)N3CCC(N4C(=O)CCc5ccccc54)CC3)cc2)OCC(O)C(O)C1O (centres unmarked)
units.of.measure: nM
reported.measurement: 82
--
molecule: O=C(CCCCCOc1ccc(C(=O)N2CCC(N3C(=O)CCc4ccccc43)CC2)cc1)NC1CCNCC1
units.of.measure: nM
reported.measurement: 23
--
molecule: C=CCNCC(=O)NCCCCCOc1ccc(C(=O)N2CCC(N3C(=O)CCc4ccccc43)CC2)cc1
units.of.measure: nM
reported.measurement: 98
--
molecule: O=C(c1ccc(OCCCCC(O)CN2CCC[C@H]2CO)cc1)N1CCC(N2C(=O)CCc3ccccc32)CC1 (some centres unmarked)
units.of.measure: nM
reported.measurement: 20
--
molecule: O=C(c1ccc(OC2CCCCC2)cc1)N1CCC(N2C(=O)CCc3ccccc32)CC1
units.of.measure: nM
reported.measurement: 960
--
molecule: O=C(c1ccc(OCCCO)cc1)N1CCC(N2C(=O)CCc3ccccc32)CC1
units.of.measure: nM
reported.measurement: 460
--
molecule: CC(=O)N1CCC(C(=O)NCCCCOc2ccc(C(=O)N3CCC(N4C(=O)CCc5ccccc54)CC3)cc2)CC1
units.of.measure: nM
reported.measurement: 120
--
molecule: COc1ccc(C(=O)N2CCC(N3C(=O)CCc4ccccc43)CC2)c(OCCCOC(C)=O)c1
units.of.measure: nM
reported.measurement: 460

---

# test.system: V1 receptor (Rattus norvegicus, UniProt P30560)
# Sequence (P30560 whole entry): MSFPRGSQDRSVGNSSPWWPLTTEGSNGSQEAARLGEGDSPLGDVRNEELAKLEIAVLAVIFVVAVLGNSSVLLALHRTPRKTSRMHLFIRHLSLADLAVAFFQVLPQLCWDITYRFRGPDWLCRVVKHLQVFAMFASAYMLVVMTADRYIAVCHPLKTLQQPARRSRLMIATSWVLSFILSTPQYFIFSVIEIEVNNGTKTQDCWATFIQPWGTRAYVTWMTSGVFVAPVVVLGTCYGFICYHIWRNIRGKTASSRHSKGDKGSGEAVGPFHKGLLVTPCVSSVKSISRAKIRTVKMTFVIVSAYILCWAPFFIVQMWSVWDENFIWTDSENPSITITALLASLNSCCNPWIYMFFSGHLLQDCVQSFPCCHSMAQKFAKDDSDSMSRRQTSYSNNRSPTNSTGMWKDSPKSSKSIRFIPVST
# test.name: biochemical
# Format: binding
Rule for this label: Fulfilled means IC50 is less than 50 nM; Not fulfilled means IC50 is at least 50 nM.

compound: CC(=O)OCCN(CCCCCOc1ccc(C(=O)N2CCC(N3C(=O)CCc4ccccc43)CC2)cc1)CCOC(C)=O [Example 249]
test.system: V1 receptor (Rattus norvegicus, UniProt P30560)
category: Fulfilled
//
compound: CN(CCCCCCOc1ccc(C(=O)N2CCC(N3C(=O)CCc4ccccc43)CC2)cc1)CCc1ccccn1 [Example 266]
test.system: V1 receptor (Rattus norvegicus, UniProt P30560)
category: Fulfilled
//
compound: O=C(c1ccc(C=CCCO)cc1)N1CCC(N2C(=O)CCc3ccccc32)CC1 [Example 122]
test.system: V1 receptor (Rattus norvegicus, UniProt P30560)
category: Not fulfilled
//
compound: O=C(CO)NCCCCCOc1ccc(C(=O)N2CCC(N3C(=O)CCc4ccccc43)CC2)cc1 [Example 230]
test.system: V1 receptor (Rattus norvegicus, UniProt P30560)
category: Not fulfilled
//
compound: O=C(c1ccc(OCCCCC(O)CN2CCNCC2)cc1)N1CCC(N2C(=O)CCc3ccccc32)CC1 (centres unmarked) [Example 173]
test.system: V1 receptor (Rattus norvegicus, UniProt P30560)
category: Fulfilled
//
compound: O=C(c1ccc(OCCCCCN2CCCC(O)C2)cc1)N1CCC(N2C(=O)CCc3ccccc32)CC1 (centres unmarked) [Example 240]
test.system: V1 receptor (Rattus norvegicus, UniProt P30560)
category: Fulfilled
//
compound: Cc1ccc(C(=O)N2CCC(N3C(=O)CCc4ccccc43)CC2)cc1C [Example 78]
test.system: V1 receptor (Rattus norvegicus, UniProt P30560)
category: Not fulfilled
//
compound: O=C(c1ccc(OCc2ccccc2)cc1)N1CCC(N2C(=O)CCc3ccccc32)CC1 [Example 97]
test.system: V1 receptor (Rattus norvegicus, UniProt P30560)
category: Not fulfilled
